// provenance: patent US8492374B2

# system_tested: FLT-3 kinase (Homo sapiens)
# Construct: human FLT-3 (Arg571-Ser993); GST (N); purchased Cell Signaling Technology HTScan FLT-3 Kinase Assay Kit; host or cells: baculovirus expression system
# Sequence (P36888 571-993): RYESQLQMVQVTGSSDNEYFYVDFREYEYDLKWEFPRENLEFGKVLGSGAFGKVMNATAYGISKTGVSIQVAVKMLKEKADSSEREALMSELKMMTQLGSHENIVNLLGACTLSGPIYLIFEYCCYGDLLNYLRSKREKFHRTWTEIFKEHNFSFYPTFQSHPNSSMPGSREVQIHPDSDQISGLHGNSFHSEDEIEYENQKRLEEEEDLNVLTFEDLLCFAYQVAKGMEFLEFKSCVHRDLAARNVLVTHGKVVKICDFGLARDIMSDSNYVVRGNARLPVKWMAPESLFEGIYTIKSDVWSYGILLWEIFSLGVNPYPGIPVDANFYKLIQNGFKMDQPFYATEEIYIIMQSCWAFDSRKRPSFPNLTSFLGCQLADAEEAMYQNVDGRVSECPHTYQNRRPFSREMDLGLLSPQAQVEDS
# assay_details: FLT-3 kinase DELFIA assay (HTScan FLT-3 Kinase Assay Kit)
# Type: biochemical
# experimental_setup: 0.1 uM compound, 20 uM ATP
The compounds listed here are annotated with their inhibition at 0.1 µM.

[
  {
    "compound": "Nc1ncnc2[nH]c(-c3c4cccccc-4[nH]c3=O)nc12",
    "quantity_unit": "%",
    "inhibition at 0.1 µM": 12.5
  },
  {
    "compound": "O=C(Nc1ccc2[nH]c(-c3c4cccccc-4[nH]c3=O)nc2c1)Nc1cc(C(F)(F)F)ccc1F",
    "quantity_unit": "%",
    "inhibition at 0.1 µM": 32
  },
  {
    "compound": "O=c1[nH]c2cccccc-2c1-c1nc2cc(N3CCCN(c4cnccn4)CC3)ccc2[nH]1",
    "quantity_unit": "%",
    "inhibition at 0.1 µM": 17
  },
  {
    "compound": "O=c1[nH]c2cccccc-2c1-c1nc2cc(Cl)cnc2[nH]1",
    "quantity_unit": "%",
    "inhibition at 0.1 µM": 8.9
  },
  {
    "compound": "O=c1[nH]c2cccccc-2c1-c1nc2cc(N3CCC(N4CCCC4)CC3)ccc2[nH]1",
    "quantity_unit": "%",
    "inhibition at 0.1 µM": 28.3
  },
  {
    "compound": "CN(C)c1ccc(CN2CCN(c3ccc4[nH]c(-c5c6cccccc-6[nH]c5=O)nc4c3)CC2)cc1",
    "quantity_unit": "%",
    "inhibition at 0.1 µM": 27.3
  },
  {
    "compound": "O=C(Nc1ccc(Cl)c(C(F)(F)F)c1)Nc1ccc2[nH]c(-c3c4cccccc-4[nH]c3=O)nc2c1",
    "quantity_unit": "%",
    "inhibition at 0.1 µM": 57.9
  },
  {
    "compound": "CN1CCCN(C(=O)c2ccc3[nH]c(-c4c5cccccc-5[nH]c4=O)nc3c2)CC1",
    "quantity_unit": "%",
    "inhibition at 0.1 µM": 27.1
  },
  {
    "compound": "O=C(Nc1ccc2[nH]c(-c3c4cccccc-4[nH]c3=O)nc2c1)c1ccncc1",
    "quantity_unit": "%",
    "inhibition at 0.1 µM": 13.4
  },
  {
    "compound": "O=c1[nH]c2cccccc-2c1-c1nc2cc(N3CCN(c4ccccn4)CC3)ccc2[nH]1",
    "quantity_unit": "%",
    "inhibition at 0.1 µM": 29.5
  },
  {
    "compound": "CCN(CC)CCn1c2cccccc-2c(-c2nc3ccccc3[nH]2)c1=O",
    "quantity_unit": "%",
    "inhibition at 0.1 µM": 8.4
  },
  {
    "compound": "O=CN1CCCN(c2ccc3[nH]c(-c4c5cccccc-5[nH]c4=O)nc3c2)CC1",
    "quantity_unit": "%",
    "inhibition at 0.1 µM": 20.6
  },
  {
    "compound": "Cc1cc(N2CCN(c3ccc4[nH]c(-c5c6cccccc-6[nH]c5=O)nc4c3)CC2)nc(N(C)C)n1",
    "quantity_unit": "%",
    "inhibition at 0.1 µM": 43.3
  },
  {
    "compound": "O=C(c1ccc2[nH]c(-c3c4cccccc-4[nH]c3=O)nc2c1)N1CCN(c2ccncc2)CC1",
    "quantity_unit": "%",
    "inhibition at 0.1 µM": 36.8
  },
  {
    "compound": "O=c1[nH]c2cccccc-2c1-c1nc2cc(N3CCCN(c4ccccn4)CC3)ccc2[nH]1",
    "quantity_unit": "%",
    "inhibition at 0.1 µM": 17
  },
  {
    "compound": "O=c1[nH]c2cccccc-2c1-c1nc2cc(N3CCN(c4cccnc4)CC3)ccc2[nH]1",
    "quantity_unit": "%",
    "inhibition at 0.1 µM": 18.9
  },
  {
    "compound": "O=C(Nc1cccc(C(F)(F)F)c1)Nc1ccc2[nH]c(-c3c4cccccc-4[nH]c3=O)nc2c1",
    "quantity_unit": "%",
    "inhibition at 0.1 µM": 47.5
  },
  {
    "compound": "CN1CCN(c2c(F)cc3[nH]c(-c4c5cccccc-5[nH]c4=O)nc3c2F)CC1",
    "quantity_unit": "%",
    "inhibition at 0.1 µM": 20.3
  },
  {
    "compound": "C[N+]1([O-])CC[N+]([O-])(c2ccc3[nH]c(-c4c5cccccc-5[nH]c4=O)nc3c2)CC1 (stereo not shown)",
    "quantity_unit": "%",
    "inhibition at 0.1 µM": 11.1
  },
  {
    "compound": "O=c1[nH]c2cccccc-2c1-c1nc2cc(N3CCN(Cc4ccc5ccccc5c4)CC3)ccc2[nH]1",
    "quantity_unit": "%",
    "inhibition at 0.1 µM": 33.5
  },
  {
    "compound": "O=c1[nH]c2cccccc-2c1-c1nc2cccnc2[nH]1",
    "quantity_unit": "%",
    "inhibition at 0.1 µM": 8.6
  },
  {
    "compound": "O=c1[nH]c2cccccc-2c1-c1nc2cc(-n3nccn3)ccc2[nH]1",
    "quantity_unit": "%",
    "inhibition at 0.1 µM": 36.3
  },
  {
    "compound": "O=c1[nH]c2cccccc-2c1-c1nc2cc(N3CCCN(c4ccncc4)CC3)ccc2[nH]1",
    "quantity_unit": "%",
    "inhibition at 0.1 µM": 44.2
  },
  {
    "compound": "O=c1[nH]c2cccccc-2c1-c1nc2cc(F)ccc2[nH]1",
    "quantity_unit": "%",
    "inhibition at 0.1 µM": 18.9
  },
  {
    "compound": "O=c1[nH]c2cccccc-2c1-c1nc2ccccc2[nH]1 [Compound A1, 3-(benzimidazol-2-yl)-1-azaazulen-2-one, reference compound]",
    "quantity_unit": "%",
    "inhibition at 0.1 µM": 11.5
  },
  {
    "compound": "O=c1[nH]c2cccccc-2c1-c1nc2cc(N3CCCN(CCCF)CC3)ccc2[nH]1",
    "quantity_unit": "%",
    "inhibition at 0.1 µM": 30.3
  },
  {
    "compound": "O=c1[nH]c2cccccc-2c1-c1nc2cc(N3CCCNCC3)ccc2n1CCCF",
    "quantity_unit": "%",
    "inhibition at 0.1 µM": 9.9
  },
  {
    "compound": "O=c1[nH]c2cccccc-2c1-c1nc2cc(N3CCN(CCCF)CC3)ccc2[nH]1",
    "quantity_unit": "%",
    "inhibition at 0.1 µM": 24.3
  },
  {
    "compound": "CN(C)C1CCN(c2ccc3[nH]c(-c4c5cccccc-5[nH]c4=O)nc3c2)CC1",
    "quantity_unit": "%",
    "inhibition at 0.1 µM": 46.8
  },
  {
    "compound": "O=c1[nH]c2cccccc-2c1-c1nc2cc(N3CCC(N4CCCCC4)CC3)ccc2[nH]1",
    "quantity_unit": "%",
    "inhibition at 0.1 µM": 22.8
  },
  {
    "compound": "O=c1[nH]c2cccccc-2c1-c1nc2cc(N3CCCN(Cc4cccnc4)CC3)ccc2[nH]1",
    "quantity_unit": "%",
    "inhibition at 0.1 µM": 39.8
  }
]
